# 100 nM Ag Bound (RU) listing for each entry below
# studyTarget: T1, mfNPR1-mFc:hBNP complex (monkey; human, UniProt P16860 103-134)
# T1 construct: Receptor-Fc pre-complexed with 10-fold hBNP
# testDescription: SPR Biacore, mAb captured by anti-human Fc, 37C

binder	100 nM Ag Bound (RU)
mAb22033 (antibody, human IgG4, V domains shown) VH: QVQLVQSGAEVKKPGASVTVSCKASGYTFTDYYMHWVRQAPGQGLEWMGWIKPNSGGTNSAQRFQGRITMTWDTSISTAYMELSRLRSDDTAVYYCSRGGPVMNYYYYYGMDVWGQGTTVTVSS VL: NIQMTQSPSSLSASVGDRVTITCRASQSIDSYLNWYQQKPGKAPKLLIYVASSLQSGVPSRFSGSGSGKDFTLTISSLQPEDFATYYCQQSYSIPTFGQGTRLEIK	167
mAb22805 (antibody, human IgG4, V domains shown) VH: QVQLVESGGGVVQPGRSLRLSCAASGFTFSTYGMHWVRQAPGKGLEWVALIWNDGSNKYYADSVKGRFTISRDNSKNTLDLQMNSLRAEDTAVYYCARLNTRITGTTNLDYWGQGTLVTVSS VL: DIQMTQSPSSLSASVGDRVTVSCRASQSIANYLNWYQQKPGKAPNLLIYGAYTLQSGVPSRFRGSGSGTDFTLTISSLQPEDFATYYCQQTYSTPPITFGQGTRLEIK	150

Cited source for all entries: patent US20240309103A1
